test system: 171881-019-R-J1-PDC tumor spheroid viability; assay: Anticancer human tumor 171881-019-R-J1-PDC patient-derived invasive breast carcinoma cell line growth inhibition [PI3K]; conditions: second compound 0.00316 µM; first compound 0.00316 µM; hits give low values; spheroids with HUVEC and MSC;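 also: spheroids exposed to compound for 7 days before viability read; 100% = DMSO vehicle-treated spheroids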
Please provide measured viability, T/C for the entries that follow.

CC(=O)c1c(C)c2cnc(Nc3ccc(N4CCNCC4)cn3)nc2n(C2CCCC2)c1=O + COc1c(OCCCN2CCOCC2)ccc2c3n(c(=NC(=O)c4cnc(N)nc4)nc12)CCN3    65.5%
Cn1ncnc1[C@H]1c2n[nH]c(=O)c3cc(F)cc(c23)N[C@@H]1c1ccc(F)cc1 + CC(Nc1ccc2c(c1)OCCn1cc(N3C(=O)OCC3C(F)F)nc1-2)C(N)=O    95.2%
CC(=O)c1c(C)c2cnc(Nc3ccc(N4CCNCC4)cn3)nc2n(C2CCCC2)c1=O + CC(Nc1ccc2c(c1)OCCn1cc(N3C(=O)OCC3C(F)F)nc1-2)C(N)=O    94.5%
CCN1CCN(Cc2ccc(Nc3ncc(F)c(-c4cc(F)c5nc(C)n(C(C)C)c5c4)n3)nc2)CC1 + COc1c(OCCCN2CCOCC2)ccc2c3n(c(=NC(=O)c4cnc(N)nc4)nc12)CCN3    71.9%

Your task in this section: give viability, T/C for each listed record.
1. Cn1ncnc1[C@H]1c2n[nH]c(=O)c3cc(F)cc(c23)N[C@@H]1c1ccc(F)cc1 + COc1c(OCCCN2CCOCC2)ccc2c3n(c(=NC(=O)c4cnc(N)nc4)nc12)CCN3
2. CC(C)n1nc(-c2ccc3oc(N)nc3c2)c2c(N)ncnc21 + CC(Nc1ccc2c(c1)OCCn1cc(N3C(=O)OCC3C(F)F)nc1-2)C(N)=O
3. CC(C)n1nc(-c2ccc3oc(N)nc3c2)c2c(N)ncnc21 + COc1c(OCCCN2CCOCC2)ccc2c3n(c(=NC(=O)c4cnc(N)nc4)nc12)CCN3
4. CCN1CCN(Cc2ccc(Nc3ncc(F)c(-c4cc(F)c5nc(C)n(C(C)C)c5c4)n3)nc2)CC1 + CC(Nc1ccc2c(c1)OCCn1cc(N3C(=O)OCC3C(F)F)nc1-2)C(N)=O

["62.6%", "69.5%", "47.6%", "87%"]
